- System: SHC014
- measurement-protocol: microbe, parasite or virus in culture
- Assay type: cell-based, bat-derived SARS-like coronavirus
- conditions: Severe acute respiratory syndrome-related coronavirus, HAE, HAE cells
measured-property: EC50

Query :: // returns reported EC50 for input Cc1nc(N)c2c(C(N)=O)cn([C@@H]3O[C@H](CO)[C@@H](O)[C@H]3O)c2n1
Result :: ~1000 nM

---

- System: SARS-CoV-2 (USA-WA1/2020)
- measurement-protocol: Neutral red CPE assay in Vero E6 cells
- Assay type: cell-based
- conditions: Severe acute respiratory syndrome coronavirus 2, Vero C1008, 72 h; Neutral Red in Vero E6 cells, day 3 post-infection; read-out: EC50: 50% effective antiviral concentration
measured-property: pEC50
Convention used: pEC50 is expressed as -log10 of the molar concentration.

Query :: // returns reported pEC50 for input NC(=O)c1cn([C@@H]2O[C@H](CO)[C@@H](O)[C@H]2O)c2ncnc(N)c12 [Sangivamycin, reference compound]
Result :: 8.15

---

- measurement-protocol: in vivo
- conditions: female, BALB/c, mouse, 5 mg, Mean Plasma Compound 1 Concentration
measured-property: concentration at 3 h

Query :: // returns reported concentration at 3 h for input Cc1nc(N)c2c(C(N)=O)cn([C@@H]3O[C@H](CO)[C@@H](O)[C@H]3O)c2n1 [Compound 1]
Result :: 18 ng/mL

---

- Tested on: WIV1
- measurement-protocol: microbe, parasite or virus in culture
- Type: cell-based, bat-derived SARS-like coronavirus
- conditions: Severe acute respiratory syndrome-related coronavirus, HAE, HAE cells
measured-property: EC50

Query :: For WIV1, provide EC50 of Cc1nc(N)c2c(C(N)=O)cn([C@@H]3O[C@H](CO)[C@@H](O)[C@H]3O)c2n1 [Compound 1] please.
Result :: ~1000 nM

---

- Test system: SARS-CoV-2 (USA-WA1/2020)
- measurement-protocol: Neutral red CPE assay in Vero E6 cells
- Format: cell-based
- conditions: Severe acute respiratory syndrome coronavirus 2, Vero C1008, 72 h, read-out: EC50: 50% effective antiviral concentration
measured-property: pEC50
Convention used: pEC50 is expressed as -log10 of the molar concentration.

Query :: For SARS-CoV-2 (USA-WA1/2020), provide pEC50 of Cc1nc(N)c2c(C(N)=O)cn([C@@H]3O[C@H](CO)[C@@H](O)[C@H]3O)c2n1 please.
Result :: 4.25

---

- measurement-protocol: in vivo
- conditions: female, BALB/c, mouse, 5 mg
measured-property: Kp

Query :: // returns reported Kp for input Cc1nc(N)c2c(C(N)=O)cn([C@@H]3O[C@H](CO)[C@@H](O)[C@H]3O)c2n1
Result :: ~20

---

- measurement-protocol: in vivo
- conditions: female, BALB/c, mouse, 5 mg, Plasma Compound 1 Concentration
measured-property: concentration at 8 h (ng/mL)
Answer format: numeric, ng/mL implied, no suffix.

Query :: // returns reported concentration at 8 h for input Cc1nc(N)c2c(C(N)=O)cn([C@@H]3O[C@H](CO)[C@@H](O)[C@H]3O)c2n1
Result :: 11.9

---

- measurement-protocol: in vivo
- conditions: female, BALB/c, mouse, 5 mg
measured-property: Kp at 8 h

Query :: // returns reported Kp at 8 h for input Cc1nc(N)c2c(C(N)=O)cn([C@@H]3O[C@H](CO)[C@@H](O)[C@H]3O)c2n1
Result :: ~12
